target: T1, biotinylated recombinant human FAP (human, UniProt Q12884 27-760, biotinylated); experiment: SPR (Biacore)
T1 construct: the Biacore paragraphs only say biotinylated (recombinant) human FAP; also called biotinylated human FAP; recombinant huFAP

Binder	Display Unit	kon
P1AE1702_Fab, humanized anti-FAP Fab VH2G2a/VL2G2a (Fab, V domains shown) VH: EVQLLESGGGLVQPGGSLRLSCAASGYTLTDYNMDWVRQAPGKGLEWVGDIYPNTGGTIYNQKFKGRFTISIDKSKNTAYLQMNSLRAEDTAVYYCTRFRGIHYAMDYWGQGTTVTVSS VL: DIQMTQSPSSLSASVGDRVTITCRASESVDNYGLSFINWFQQKPGQPPKLLIYGTSNRGSGVPSRFSGSGSGTDFTLTISSLQPEDFAMYFCQQSNEVPYTFGGGTKVEIK	M⁻¹ s⁻¹	502000
